MEASUREMENT_NOTES: Solubility of free C21 in aqueous vehicles (saturated solutions, HPLC)
Format: physicochemical
ASSAY_CONDITIONS: 0.9% NaCl, pH 7.3, saline or isotonic, thermodynamic from solid, vehicle 0.9% NaCl; pH 7.3; read-out: Concentration (solubility)
ASSAY_METRIC: solubility at 48 h

>>> experimental_result("CCCCOC(=O)NS(=O)(=O)c1sc(CC(C)C)cc1-c1ccc(Cn2ccnc2)cc1 [free C21]")
"120 µg/mL"

----------
MEASUREMENT_NOTES: Solubility of free C21 in aqueous vehicles (saturated solutions, HPLC)
Format: physicochemical
ASSAY_CONDITIONS: citric acid buffer pH 4.0, pH 4, aqueous buffer, thermodynamic from solid, vehicle Buffer/Citric acid pH 4.0; measured pH 4.0; read-out: Concentration (solubility)
ASSAY_METRIC: solubility at 48 h (µg/mL)

>>> experimental_result("CCCCOC(=O)NS(=O)(=O)c1sc(CC(C)C)cc1-c1ccc(Cn2ccnc2)cc1 [free C21]")
80

----------
MEASUREMENT_NOTES: Solubility of free C21 in aqueous vehicles (saturated solutions, HPLC)
Format: physicochemical
ASSAY_CONDITIONS: water, pH 7.3, water, thermodynamic from solid, vehicle H2O; pH 7.3; stirred 48 hours; read-out: Concentration (solubility)
Description: […] After 48 hours, pH was measured and thereafter 1 mL of solution was withdrawn. […] C21 content was measured by HPLC.
ASSAY_METRIC: solubility at 48 h (µg/mL)

>>> experimental_result("CCCCOC(=O)NS(=O)(=O)c1sc(CC(C)C)cc1-c1ccc(Cn2ccnc2)cc1 [free C21]")
150

----------
MEASUREMENT_NOTES: Solubility of free C21 in aqueous vehicles (saturated solutions, HPLC)
Type: physicochemical
ASSAY_CONDITIONS: PEG/H2O (50:50), pH 6.2, aqueous with cosolvent or surfactant or cyclodextrin, thermodynamic from solid, vehicle PEG/H2O (50:50); pH 6.2; read-out: Concentration (solubility)
ASSAY_METRIC: solubility at 48 h (µg/mL)

>>> experimental_result("CCCCOC(=O)NS(=O)(=O)c1sc(CC(C)C)cc1-c1ccc(Cn2ccnc2)cc1 [free C21]")
610

----------
MEASUREMENT_NOTES: Solubility of C21 sodium salt in aqueous vehicles
Type: physicochemical
ASSAY_CONDITIONS: aqueous buffer, thermodynamic from solid; vehicle PBS pH 7.4; measured pH 9.4; saturation not reached; read-out: Concentration (solubility)
Counter-ions that a name gives are not always drawn.
ASSAY_METRIC: solubility

>>> experimental_result("CCCCOC(=O)NS(=O)(=O)c1sc(CC(C)C)cc1-c1ccc(Cn2ccnc2)cc1 [C21 sodium salt]")
"> 40 mg/mL"

----------
MEASUREMENT_NOTES: Solubility of free C21 in aqueous vehicles (saturated solutions, HPLC)
Type: physicochemical
ASSAY_CONDITIONS: 0.9% NaCl, pH 9.7, saline or isotonic, thermodynamic from solid, vehicle 0.9% NaCl; pH 9.7 adjusted by NaOH; read-out: Concentration (solubility)
ASSAY_METRIC: solubility at 48 h (mg/mL)

>>> experimental_result("CCCCOC(=O)NS(=O)(=O)c1sc(CC(C)C)cc1-c1ccc(Cn2ccnc2)cc1 [free C21]")
27.4

----------
MEASUREMENT_NOTES: Solubility of free C21 in aqueous vehicles (saturated solutions, HPLC)
Format: physicochemical
ASSAY_CONDITIONS: boric acid buffer pH 8.0, pH 7.9, aqueous buffer, thermodynamic from solid, vehicle Buffer/Boric acid pH 8.0; measured pH 7.9; read-out: Concentration (solubility)
ASSAY_METRIC: solubility at 48 h (µg/mL)

>>> experimental_result("CCCCOC(=O)NS(=O)(=O)c1sc(CC(C)C)cc1-c1ccc(Cn2ccnc2)cc1 [free C21]")
500
